Test: ATG_E_Box_CIS: Attagene CIS-FACTORIAL HepG2 Assay for human Enhancer Box (E-box) (AID 2282936)
Details: HepG2 E-box cis-reporter transcription, actives raise or lower the signal
Active and inactive are the calls of the source. The calls were made as follows: active = hit-call score of the fitted dose curve at least 0.9, where 1 is the maximum; inactive = score below 0.9.
Outcome codes: active, inactive

compound=CCc1cccc(CC)c1 assignedlabel=inactive
compound="CC1=NN(c2ccc(S(=O)(=O)O)cc2)C(=O)C1N=Nc1ccccc1 (stereo unspecified)" assignedlabel=inactive
compound=O=C(O)/C=C/c1ccccc1 assignedlabel=inactive
compound=Nc1ccc(C(=O)O)cc1 assignedlabel=inactive
compound=N=C1C=CC(=C(c2ccc(N)cc2)c2ccc(N)cc2)C=C1 assignedlabel=active
compound=COC(=O)C=Cc1ccccc1 assignedlabel=inactive
compound=CCCCCCCCCCCC(=O)N(C)CC(=O)O assignedlabel=inactive
compound=C=Cc1ccc(OC(C)=O)cc1 assignedlabel=inactive
compound="CC1CCC(=O)C1=O (stereo unspecified)" assignedlabel=inactive
compound=O=C(OCCc1ccccc1)c1ccccc1 assignedlabel=inactive
compound=COC(Cc1ccccc1)OC assignedlabel=inactive
compound=CC(=O)OCCc1ccccc1 assignedlabel=inactive
compound=CC(=O)CC(=O)Nc1ccccc1C assignedlabel=inactive
compound=O=C1c2ccccc2C(=O)c2cc(S(=O)(=O)O)ccc21 assignedlabel=inactive
compound=Cc1noc(NS(=O)(=O)c2ccc(N)cc2)c1C assignedlabel=inactive
compound="C=CC(C)(O)CC/C=C(\\C)CC (stereo unspecified)" assignedlabel=inactive
compound=CCCCCCCCCC[N+](C)(CCCCCCCCCC)CCC[Si](OC)(OC)OC assignedlabel=active
compound=CCCCCCCOC(=O)c1ccc(O)cc1 assignedlabel=active
compound=CC(CC(C)C)=NO assignedlabel=inactive
compound=CCCCCCCCCCCCC assignedlabel=inactive
compound="O=C(O)C1CCC(C(=O)O)CC1 (stereo unspecified)" assignedlabel=inactive
compound=CC(c1cc(C(C)(C)C)cc(C(C)(C)C)c1O)c1cc(C(C)(C)C)cc(C(C)(C)C)c1O assignedlabel=inactive
compound=CC1(C)CCC[C@]2(C)[C@H]3CC(=O)O[C@]3(C)CC[C@@H]12 assignedlabel=inactive
compound=CC(=O)c1ccccc1O assignedlabel=inactive
compound=COc1ccc(C(=O)/C(Br)=C\C(=O)O)cc1 assignedlabel=inactive
compound=CC=C(C)C=CC=C(C)C assignedlabel=inactive
compound=Nc1ccc(O)c([N+](=O)[O-])c1 assignedlabel=inactive
compound=O=C(O)c1ccc2c(c1)C(=O)OC2=O assignedlabel=inactive
compound=C[Si](C)(C)N[Si](C)(C)C assignedlabel=inactive
compound=CCc1cccc(C)c1N assignedlabel=inactive
compound=COC(OC)(C(=O)c1ccccc1)c1ccccc1 assignedlabel=inactive
